FYI, the data here is from paper PMC4951027.

# SYSTEM TESTED: Fn N-terminal domain fragment (Fn-NTD) (human)
# Sequence (chain, as listed by the source): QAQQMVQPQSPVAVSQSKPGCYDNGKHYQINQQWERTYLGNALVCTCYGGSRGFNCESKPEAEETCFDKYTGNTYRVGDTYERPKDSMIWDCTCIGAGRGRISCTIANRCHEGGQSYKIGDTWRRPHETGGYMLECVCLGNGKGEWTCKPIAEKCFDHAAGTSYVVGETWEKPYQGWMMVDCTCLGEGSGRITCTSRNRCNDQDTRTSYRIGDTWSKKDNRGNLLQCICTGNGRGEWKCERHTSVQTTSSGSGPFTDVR
# ASSAY EXPLANATION: ITC
Ends that are not written are not given here.
Kindly supply the reported pKd values for the records listed here.
Bear in mind: pKd is minus log10 of a mol/L concentration; give just that figure.

GGGQVTTESNLVEFDEESTKGIVTGAVSDHTTVEDTK (domain or fragment, also: fused to GST carrier (carrier not in chain)) [GST-FnBPA-5] yielded pKd of 7.36

Per the records, this binder ( KYEHGGNIIDIDFDSVPHIHGFNKHTEIIEEDTNKDKP (domain or fragment, also: fused to GST carrier (carrier not in chain)) [GST-FnBPA-10] ) has pKd equal to 7.70

Form: binder = KYEQGGNIVDIDFDSVPQIHGQNKGNQSFEEDTEKDKP (domain or fragment, also: fused to GST carrier (carrier not in chain)) [GST-FnBPA-9] ; pKd = 8.14

Per the record, NEKNGPIIQNNKFEYKEDTIKETLTGQYDKNLVTTVEEEYDS (domain or fragment, also: fused to GST carrier (carrier not in chain)) [GST-FnBPA-1] has pKd of 8.32
